- study.system: DPP IV (Homo sapiens)
- Sequence (P27487 whole entry, species assumed): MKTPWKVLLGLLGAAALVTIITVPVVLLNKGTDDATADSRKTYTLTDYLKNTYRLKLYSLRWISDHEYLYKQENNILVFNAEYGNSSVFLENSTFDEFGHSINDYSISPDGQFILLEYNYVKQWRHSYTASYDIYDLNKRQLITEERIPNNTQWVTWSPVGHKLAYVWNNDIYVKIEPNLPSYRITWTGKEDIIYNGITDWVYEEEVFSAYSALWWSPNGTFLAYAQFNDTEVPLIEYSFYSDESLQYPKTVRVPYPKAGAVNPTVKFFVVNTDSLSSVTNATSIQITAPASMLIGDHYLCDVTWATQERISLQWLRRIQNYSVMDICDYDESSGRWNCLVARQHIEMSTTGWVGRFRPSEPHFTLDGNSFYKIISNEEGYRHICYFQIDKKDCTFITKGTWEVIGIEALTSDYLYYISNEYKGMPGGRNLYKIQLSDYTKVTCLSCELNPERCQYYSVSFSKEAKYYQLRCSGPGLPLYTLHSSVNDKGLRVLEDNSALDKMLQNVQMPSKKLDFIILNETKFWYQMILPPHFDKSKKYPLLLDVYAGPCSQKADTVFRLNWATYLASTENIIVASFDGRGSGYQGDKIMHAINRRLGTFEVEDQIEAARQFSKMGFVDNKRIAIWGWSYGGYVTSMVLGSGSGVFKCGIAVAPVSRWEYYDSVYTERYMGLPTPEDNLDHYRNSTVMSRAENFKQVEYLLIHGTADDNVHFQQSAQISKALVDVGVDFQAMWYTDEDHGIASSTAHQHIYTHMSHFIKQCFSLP
- experiment.description: In vitro DPP IV enzyme inhibition assay; inhibitors incubated at pH 2 or pH 8, then added to enzyme assay solution at pH 8.0
- Assay type: biochemical
- cond: pH 8; ten minutes; read-out: IC50 Values at Ten Minutes pH 8
- Procedure: Inhibitors were incubated overnight in pH 2 or pH 8 solutions and then added directly to an enzyme assay solution at pH 8.0. It is important to note that the x-axis in FIG. 3 refers to the concentration of the SPI, not the concentration of the released Xaa-boroPro.

[
  {
    "molecule": "CCC(NC(=O)C1CC(O)CN1C(=O)C(N)C1CCCCC1)C(=O)N1CCCC1B(O)O (centres unmarked)",
    "IC50 (nM)": 25
  },
  {
    "molecule": "CCC(NC(=O)C(C)NC(=O)C(N)C1CCCCC1)C(=O)N1CCCC1B(O)O (centres unmarked)",
    "IC50 (nM)": 802
  },
  {
    "molecule": "NCC(=O)N1CCCC1C(=O)N1CCCC1C(=O)N1CCCC1B(O)O (centres unmarked)",
    "IC50 (nM)": 20000
  },
  {
    "molecule": "CC(C)C(NC(=O)C1CCCN1C(=O)C(N)C1CCCCC1)C(=O)N1CCCC1B(O)O (centres unmarked)",
    "IC50 (nM)": 70
  },
  {
    "molecule": "CC(NC(=O)C(N)C1CCCCC1)C(=O)N1CCCC1C(=O)N1CCCC1B(O)O (centres unmarked)",
    "IC50 (nM)": 30000
  },
  {
    "molecule": "CC(NC(=O)C1CCCN1C(=O)C(N)Cc1ccc(O)cc1)C(=O)N1CCCC1B(O)O (centres unmarked)",
    "IC50 (nM)": 17
  },
  {
    "molecule": "CC(NC(=O)C1CCCN1C(=O)C(N)Cc1ccccc1)C(=O)N1CCCC1B(O)O (centres unmarked)",
    "IC50 (nM)": 8
  },
  {
    "molecule": "CC(NC(=O)C(NC(=O)C1CCCN1C(=O)C(N)C1CCCCC1)C1CCCCC1)B(O)O (centres unmarked)",
    "IC50 (nM)": 170
  }
]
